Sourced from patent US12486269B2

Target: COS-7/AMY3 (human calcitonin receptor (CTR) and RAMP3) (Homo sapiens, UniProt O60896+P30988)
Construct: expressed in transfected cells; host or cells: COS-7
Sequence (P30988 25-474): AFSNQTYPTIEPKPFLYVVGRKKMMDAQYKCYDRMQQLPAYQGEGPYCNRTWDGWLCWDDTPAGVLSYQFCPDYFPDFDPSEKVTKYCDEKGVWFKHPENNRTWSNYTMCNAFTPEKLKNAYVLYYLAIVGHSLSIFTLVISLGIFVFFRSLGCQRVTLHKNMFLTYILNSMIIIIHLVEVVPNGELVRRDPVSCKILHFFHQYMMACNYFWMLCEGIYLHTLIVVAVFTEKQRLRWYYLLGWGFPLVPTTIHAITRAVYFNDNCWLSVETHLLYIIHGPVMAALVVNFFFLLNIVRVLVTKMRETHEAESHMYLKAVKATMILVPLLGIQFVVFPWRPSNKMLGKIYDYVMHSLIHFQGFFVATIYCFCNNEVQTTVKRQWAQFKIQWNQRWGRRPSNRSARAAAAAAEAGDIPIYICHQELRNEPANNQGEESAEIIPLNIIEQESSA
Sequence (O60896 24-148): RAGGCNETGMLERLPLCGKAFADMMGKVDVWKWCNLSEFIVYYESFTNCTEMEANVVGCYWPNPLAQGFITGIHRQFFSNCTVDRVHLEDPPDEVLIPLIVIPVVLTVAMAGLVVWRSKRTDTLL
Experiment: Amylin Receptor cAMP Assay II
Type: cell-based
Conditions: values marked **: Amylin Receptor cAMP Assay II; COS-7/AMY3 cells, cAMP dynamic 2 kit, 30 min; read-out: Amylin Receptor cAMP Stimulation Activity: EC50
property: pEC50
Give bare numbers, as −log10 of the molar value.

Here are 2 molecules together with their reported answers.
{"columns": ["molecule", "obsValue"],
 "data": [
  ["COc1cccc2c1CC[C@H]2Nc1nccc2cc(-c3c4c(nc(CCc5ccc(F)cc5)c3-c3n[nH]c(=O)o3)[C@H]3N(CCC3(C)C)C4=O)sc12", 7.28],
  ["C[C@@H](Nc1nccc2cc(-c3c4c(nc(CCc5ccc(F)cc5)c3-c3n[nH]c(=O)o3)[C@@H]3CCCN3C4=O)sc12)c1ccc(F)c(F)c1", 7.48]
]}

--- query ---
(Q) Entry under review: COc1cccc2c1CC[C@H]2Nc1nccc2cc(-c3c4c(nc(CCc5ccc(F)cc5)c3-c3n[nH]c(=O)o3)[C@@H]3CCCN3C4=O)sc12 [Compound 230] . Reported pEC50?
(A) 7.76
